- Tested on: human herpes simplex virus 1
- EXPERIMENTAL DETAILS: HSV antiviral susceptibility assay: HSV DNA by nucleic acid hybridization in infected MRC-5 cells (Table III)
- Type: cell-based
- COND: Human alphaherpesvirus 1, MRC5; HSV-1-infected MRC-5 cells, approximately 24 hours; mean ± S.D. (n); read-out: IC50
ATTRIBUTE MEASURED: IC50 (nM)
# number only, unit nM dropped from output

Some solved cases for reference:
CCCCCCCCCCCCCCCCCCOC[C@H](COP(=O)(O)C(=O)O)OCc1ccccc1 [BB--PFA]	1400
CCCCCCCCCCCCCCCCCCOC[C@@H](O)COP(=O)(O)C(=O)O [B--PFA]	1100

We next turn to a different molecule, shown below.
Request: Check the records and state IC50 for CCCCCCCCCCCCCCCCCCOC[C@H](COP(=O)(O)C(=O)O)OC [MB--PFA]
Response: 650
